Taken from patent US20200087373A1.

Target: T1, human GIP receptor (human, UniProt P48546 22-466)
T1 construct: whole, on cells; Transiently transfected COS-7 cells expressing the human GIP receptor; also called hGIPR
T1 sequence (looked up): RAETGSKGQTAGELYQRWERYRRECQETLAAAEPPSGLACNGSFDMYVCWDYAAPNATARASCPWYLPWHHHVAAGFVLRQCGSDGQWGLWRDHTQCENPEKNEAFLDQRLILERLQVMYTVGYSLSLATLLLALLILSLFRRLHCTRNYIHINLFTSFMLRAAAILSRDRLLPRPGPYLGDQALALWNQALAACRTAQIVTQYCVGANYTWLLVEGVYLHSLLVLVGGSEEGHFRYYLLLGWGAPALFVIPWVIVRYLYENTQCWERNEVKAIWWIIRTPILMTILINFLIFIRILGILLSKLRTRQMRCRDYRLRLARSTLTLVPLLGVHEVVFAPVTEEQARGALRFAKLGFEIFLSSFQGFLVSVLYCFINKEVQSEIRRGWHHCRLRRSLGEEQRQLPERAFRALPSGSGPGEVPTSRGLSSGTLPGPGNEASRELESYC
Experiment: 125I-hGIP(1-42) competition binding, COS-7 cells expressing human GIPR, with 2% HSA;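 also: nonspecific signal taken as radioligand bound to untransfected cells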
Ends that are not written are not given here.
Documented pKi across a set of binders
Kindly note that pKi refers to -log10 of the concentration in mol/L and answer with the value alone.

TKISDYSIAMDKIHQQDFVNWLLAQK (C16-diacid (1,16-hexadecanedioic acid) on Lys at position 6 in GIP numbering (residue 2 of the entry); C-terminal amide) [AT168 [hGIP(5-30)NH2[F6K]-C16diacid/6]] : 7.01

Need pKi, item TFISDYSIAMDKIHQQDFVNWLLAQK-NH2 (Not lipidated) [hGIP(5-30)NH2] 8.17
